# target entity: Chitotriosidase-1 (Homo sapiens)
# Sequence (Q13231 22-466 limits assumed): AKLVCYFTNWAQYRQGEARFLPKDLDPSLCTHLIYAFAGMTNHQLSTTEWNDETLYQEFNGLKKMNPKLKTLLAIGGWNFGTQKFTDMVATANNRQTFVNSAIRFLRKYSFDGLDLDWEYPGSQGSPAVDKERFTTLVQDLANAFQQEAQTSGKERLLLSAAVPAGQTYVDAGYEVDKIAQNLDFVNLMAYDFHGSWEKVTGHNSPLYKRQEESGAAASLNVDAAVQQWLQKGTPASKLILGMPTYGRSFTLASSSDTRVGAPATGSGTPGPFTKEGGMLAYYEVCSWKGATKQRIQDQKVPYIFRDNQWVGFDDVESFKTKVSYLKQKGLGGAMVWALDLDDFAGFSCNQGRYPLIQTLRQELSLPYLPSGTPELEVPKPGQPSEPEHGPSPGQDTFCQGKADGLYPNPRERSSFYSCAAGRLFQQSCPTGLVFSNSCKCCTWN
# test description: Inhibition of human CHIT1 catalytic domain overexpressed in Pichia pastoris at 10 uM using 4MU-(GlcNAc)2 as substrate after 30 mins by fluorescence based microplate reader analysis
Calls of active or inactive are those of the source. No cut-off for these calls is given here.
Return exactly one item of active, inactive

Example entries and their recorded answers appear below.
* CNC(=O)c1cc2c(=O)n3cc(C)ccc3nc2n(Cc2cccnc2)c1=N | inactive
* COC(=O)c1cc2c(=O)n3ccccc3nc2n(Cc2cccnc2)c1=N | inactive
* Cc1cccn2c(=O)c3cc(C(=O)N[C@H](C)c4ccccc4)c(=N)n(C[C@H]4CCCO4)c3nc12 | active

Recorded call for `COCCCn1c(=N)c(C(=O)NCc2ccc(C)cc2)cc2c(=O)n3ccccc3nc21` ?
inactive

* * *

# target entity: Chitinase B (Serratia marcescens)
# test description: Inhibition of Serratia marcescens chitinase b catalytic domain overexpressed in Escherichia coli BL21(DE3) cells at 1 uM using 4MU-(GlcNAc)2 as substrate after 30 mins by fluorescence based microplate reader analysis
Activity calls are given as the source filed them. The calls are words filed in the database; no cut-off is given here.
Return exactly one item of active, inactive

• Cc1cccn2c(=O)c3cc(C(=O)N[C@H](C)c4ccccc4)c(=N)n(C[C@H]4CCCO4)c3nc12 = active
• N=c1c(C(=O)NCc2cccnc2)cc2c(=O)n3ccccc3nc2n1Cc1ccccc1 = active
• Cc1cccn2c(=O)c3cc(C#N)c(=N)n(Cc4ccccc4)c3nc12 = inactive

Moving on to the next compound.
Recorded call for `COCCCn1c(=N)c(C(=O)NCc2ccc(OC)cc2)cc2c(=O)n3ccccc3nc21` ?
inactive

src = ChEMBL document CHEMBL4354842
